test: Tmax in Sprague-Dawley rat at 25 mg/kg, ip measured for 48 hrs by LC-MS/MS analysis; assay type: ADME, organism-based; details: in vivo
List of Tmax values.
Answer with the number, then the unit.

Entry `COc1ccc(CC(=O)N/N=C/c2c(O)ccc3ccccc23)cc1` has what Tmax?
2.67 h

---
What Tmax value was documented for this compound, `O=C(/C=C/c1ccccc1)Nc1cc(-c2ccnc(N3CCC(CO)CC3)c2)ccn1` ?
0.14 h

###

assay: Cytotoxicity against human L02 cells assessed as inhibition of cell proliferation incubated for 72 hrs by MTT assay; format: toxicity, cell-based
MEASURED_ENDPOINT: IC50 at 72 h (nM)
Give your result in nM as a bare value.

Please give the measured IC50 at 72 h for this compound: `O=C(/C=C/c1ccccc1)Nc1cc(-c2ccnc(N3CCC(CO)CC3)c2)ccn1`
64

Each recorded value in this set is attributed to ChEMBL document CHEMBL5321216.
